- Assay: Selectivity index, ratio of CC50 for […] Vero cells to IC50 for antileishmanial activity against Leishmania donovani MHOM/IN/80/Dd8 harboring luciferase reporter gene
- Type: toxicity
Quantity kind: selectivity ratio
Enter a number only.

Q. Consider the compound CCCCCCCCCCCCCCCCOP(=O)([O-])OCC[N+](C)(C)C and give its measured selectivity ratio.
A. 5.3

----------
- Assay: Stability of the compound in simulated gastric fluid assessed as parent compound remaining measured after 2 hrs by UPLC analysis
- Format: ADME
- Study conditions: read-out: Stability
Quantity kind: remaining at 2 h (%)
Express the result in % but write the number alone.

Q. Need remaining at 2 h of Cc1cc(-c2ccc(OCCn3c([N+](=O)[O-])cnc3C)cc2)nc2ccccc12 , thanks.
A. 83.6

Q. Could you tell me which remaining at 2 h is on file for Cc1cc(-c2cccc(OCCn3c([N+](=O)[O-])cnc3C)c2)nc2ccccc12 ?
A. 84.7
